These data points were gathered from ChEMBL document CHEMBL1145035.

Reported EC50 by item:
molecular target: Neuromedin-B receptor (Homo sapiens); test: Effective concentration required against nueromedin B receptor (NMB-R) in CHO cells by using FLIPR assay; type: functional, cell-based
Sequence (P28336 whole entry): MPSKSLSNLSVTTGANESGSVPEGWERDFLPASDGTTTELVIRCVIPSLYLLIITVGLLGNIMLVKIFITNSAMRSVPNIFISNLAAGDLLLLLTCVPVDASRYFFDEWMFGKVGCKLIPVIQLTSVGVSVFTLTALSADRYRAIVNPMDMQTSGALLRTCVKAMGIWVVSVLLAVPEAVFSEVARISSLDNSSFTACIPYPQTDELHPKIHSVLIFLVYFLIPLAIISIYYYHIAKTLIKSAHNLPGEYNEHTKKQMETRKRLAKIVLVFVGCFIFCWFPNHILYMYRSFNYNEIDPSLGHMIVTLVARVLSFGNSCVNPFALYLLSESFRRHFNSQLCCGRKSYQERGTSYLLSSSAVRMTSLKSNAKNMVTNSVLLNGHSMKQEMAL
Peptide text beside a SMILES is read from it. * marks the point of attachment. NHPhenethyl = c1ccc(CCN*)cc1; PhAc = O=C(Cc1ccccc1)*
Give just the number in µM; leave the unit off.

Illustrative cases are given below, each with its answer.
# Compound, U, Measured Number
data = [
    ("NC(=O)CC[C@H](NC(=O)Cc1ccccc1)C(=O)N[C@@H](Cc1c[nH]c2ccccc12)C(=O)NCCc1ccccc1 (PhAc-Gln-Trp-NHPhenethyl)", "µM", 15),
    ("NC(=O)CC[C@H](NC(=O)Cc1ccc(Cl)cc1)C(=O)N[C@@H](Cc1c[nH]c2ccccc12)C(=O)NCCc1ccccc1", "µM", 18.5),
]

In the following, a different compound is considered.
// recorded EC50 for CSCC[C@H](NC(=O)[C@H](Cc1ccccc1)NC(=O)[C@H](Cc1cnc[nH]1)NC(=O)CNC(=O)[C@@H](NC(=O)[C@H](C)NC(=O)[C@H](Cc1c[nH]c2ccccc12)NC(=O)[C@H](CC(C)C)NC(=O)[C@H](CC(N)=O)NC(=O)CN)[C@@H](C)O)C(N)=O : 0.12
